- tested-on: purified S1P(983)-C (Cricetulus griseus, UniProt Q9Z2A8, T875N)
- Construct: Truncated S1P (amino acids 1-983); GGR linker (NotI site); made in house; host or cells: SRD-12B cells (mutant CHO cells lacking S1P) stably transfected with pCMV-S1P(983)-Myc-His (TR-3117, 'S1P(983) cells'); secreted into the medium and purified on Ni-NTA
- Sequence (Q9Z2A8 187-983 T875N): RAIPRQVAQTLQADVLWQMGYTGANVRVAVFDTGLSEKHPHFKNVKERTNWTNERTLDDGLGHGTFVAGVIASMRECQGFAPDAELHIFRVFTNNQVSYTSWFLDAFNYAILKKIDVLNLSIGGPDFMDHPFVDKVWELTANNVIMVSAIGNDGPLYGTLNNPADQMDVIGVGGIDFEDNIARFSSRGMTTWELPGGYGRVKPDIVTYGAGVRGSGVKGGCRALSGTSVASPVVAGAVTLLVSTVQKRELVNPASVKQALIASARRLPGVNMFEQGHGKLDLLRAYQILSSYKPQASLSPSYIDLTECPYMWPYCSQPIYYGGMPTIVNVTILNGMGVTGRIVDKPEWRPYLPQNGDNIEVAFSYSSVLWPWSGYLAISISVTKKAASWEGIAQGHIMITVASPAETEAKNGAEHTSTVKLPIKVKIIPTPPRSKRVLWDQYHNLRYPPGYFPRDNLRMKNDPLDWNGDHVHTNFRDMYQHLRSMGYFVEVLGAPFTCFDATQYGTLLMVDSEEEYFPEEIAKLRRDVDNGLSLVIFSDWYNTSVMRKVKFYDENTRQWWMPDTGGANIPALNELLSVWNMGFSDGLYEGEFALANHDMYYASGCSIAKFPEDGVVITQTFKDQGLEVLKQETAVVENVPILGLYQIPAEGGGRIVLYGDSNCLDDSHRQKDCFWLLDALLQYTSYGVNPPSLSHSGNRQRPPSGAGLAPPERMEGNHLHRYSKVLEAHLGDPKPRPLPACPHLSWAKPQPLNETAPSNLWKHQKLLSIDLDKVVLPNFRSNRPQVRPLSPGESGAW
- experiment-notes: Fluorogenic peptide assay for S1P activity (cleavage of MCA-conjugated peptides)
- Format: biochemical, hamster
- run-parameters: result in words
Peptide text beside a SMILES is read from it. * marks the point of attachment. AMC = Cc1cc(=O)oc2cc(N*)ccc12; Boc = CC(C)(C)OC(=O)*
test-readout: cleavage of the peptide

molecule | test-readout | result
CC(=O)N[C@@H](CO)C(=O)NCC(=O)N[C@@H](CCCNC(=N)N)C(=O)N[C@@H](CO)C(=O)N[C@H](C(=O)N[C@@H](CC(C)C)C(=O)Nc1ccc2c(C)cc(=O)oc2c1)C(C)C [Ac-SGRSVL-MCA, Ac-Ser-Gly-Arg-Ser-Val-Leu-MCA] (Ac-SGRSVL-{AMC}) | cleavage of the peptide | did not cleave
Cc1cc(=O)oc2cc(NC(=O)[C@H](CCCNC(=N)N)NC(=O)[C@H](CCCNC(=N)N)NC(=O)[C@@H](NC(=O)[C@H](CCCNC(=N)N)NC(=O)OC(C)(C)C)C(C)C)ccc12 [Boc-RVRR-MCA, Boc-Arg-Val-Arg-Arg-MCA] (Boc-RVRR-{AMC}) | cleavage of the peptide | did not cleave
CC(=O)N[C@H](C(=O)N[C@@H](Cc1ccccc1)C(=O)N[C@@H](CCCNC(=N)N)C(=O)N[C@@H](CO)C(=O)N[C@@H](CCCNC(=N)N)C(=O)N[C@@H](CCCNC(=N)N)C(=O)Nc1ccc2c(C)cc(=O)oc2c1)C(C)C [Ac-VFRSRR-MCA, Ac-Val-Phe-Arg-Ser-Arg-Arg-MCA] (Ac-VFRSRR-{AMC}) | cleavage of the peptide | did not cleave
